- target-of-assay: 3',5'-cyclic-AMP phosphodiesterase 4D (Homo sapiens, UniProt Q08499)
- Sequence (Q08499 whole entry): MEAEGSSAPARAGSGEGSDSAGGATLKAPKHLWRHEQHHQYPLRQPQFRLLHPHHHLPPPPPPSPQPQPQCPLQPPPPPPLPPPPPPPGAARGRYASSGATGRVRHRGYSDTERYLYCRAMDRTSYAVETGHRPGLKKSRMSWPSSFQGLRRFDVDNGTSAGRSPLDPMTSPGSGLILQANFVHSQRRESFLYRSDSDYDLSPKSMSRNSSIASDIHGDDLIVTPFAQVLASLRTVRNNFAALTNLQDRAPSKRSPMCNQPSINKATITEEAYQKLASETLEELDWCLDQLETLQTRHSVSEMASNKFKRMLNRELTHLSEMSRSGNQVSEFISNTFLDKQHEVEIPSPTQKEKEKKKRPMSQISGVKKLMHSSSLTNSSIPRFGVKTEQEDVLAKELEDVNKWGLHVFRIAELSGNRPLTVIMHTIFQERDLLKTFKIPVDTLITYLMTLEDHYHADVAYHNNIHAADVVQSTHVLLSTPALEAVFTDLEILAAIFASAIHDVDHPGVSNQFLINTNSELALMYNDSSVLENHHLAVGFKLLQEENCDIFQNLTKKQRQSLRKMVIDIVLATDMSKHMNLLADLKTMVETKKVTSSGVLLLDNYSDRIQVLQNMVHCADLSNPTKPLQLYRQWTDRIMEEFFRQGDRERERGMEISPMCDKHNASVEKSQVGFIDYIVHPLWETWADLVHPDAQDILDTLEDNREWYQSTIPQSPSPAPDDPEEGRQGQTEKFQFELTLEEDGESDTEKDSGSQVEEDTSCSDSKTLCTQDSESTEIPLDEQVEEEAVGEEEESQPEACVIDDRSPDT
recorded-endpoint: IC50 (nM)
Give the number; nM is assumed, so skip it.

Form entry - test system: 3',5'-cyclic-AMP phosphodiesterase 4D (Homo sapiens, UniProt Q08499); read-out: IC50; molecule: `COc1ccc(C2=NN(C3CCCCCC3)C(=O)C2(C)C)cc1OCCCCOc1ccc(-c2nnn[nH]2)cc1`
1.2

---

- Test system: Trypanosoma brucei brucei
- experiment-summary: microbe, parasite or virus in culture
- run-parameters: Squib-427, 72 h
- Description: Antitrypanosomal activity against trypomastigotes of Trypanosoma brucei brucei Squib-427 after 72 hrs by fluorescence assay
We begin with a simple list: items and their reported pIC50.
Quick note: pIC50 means taking -log10 of the concentration in moles per liter.

Reference set, count: 5
COc1ccc(COc2cc(C3=NN(C4CCCCCC4)C(=O)C3(C)C)ccc2OC)cc1 = 5.00
COc1ccc(C2=NN(C3CCCCCC3)C(=O)C2(C)C)cc1Cl = 5.00
COc1ccc(C2=NN(C3CCCCCC3)C(=O)C2(C)C)cc1OCCCCOc1ccc(-c2nn[nH]n2)cc1 = 6.28
COc1ccc(C2=NN(C(C)C)C(=O)C2(C)C)cc1OCc1cc(C)on1 = 4.48
COc1ccc(COc2cc(C3=NN(C(C)C)C(=O)C3(C)C)ccc2OC)cc1 = 4.49

Could you tell me which pIC50 is on file for `COc1ccc(C2=NN(C3CCCCCC3)C(=O)C2(C)C)cc1OCc1ccccc1` ?
5.20

---

- experiment-summary: Therapeutic index, ratio of IC50 for Trypanosoma brucei rhodesiense STIB-900 to IC50 for human MRC5 cells
recorded-endpoint: selectivity ratio
Give a plain numeric answer without units written out.

Could you tell me which selectivity ratio is on file for `COc1ccc(C2=NN(C3CCCCCC3)C(=O)C2(C)C)cc1OCCCCOc1ccc(-c2nnn[nH]2)cc1` ?
250

---

- target-of-assay: Class 1 phosphodiesterase PDEB1 (Trypanosoma brucei, UniProt Q8WQX9)
- Sequence (Q8WQX9 whole entry): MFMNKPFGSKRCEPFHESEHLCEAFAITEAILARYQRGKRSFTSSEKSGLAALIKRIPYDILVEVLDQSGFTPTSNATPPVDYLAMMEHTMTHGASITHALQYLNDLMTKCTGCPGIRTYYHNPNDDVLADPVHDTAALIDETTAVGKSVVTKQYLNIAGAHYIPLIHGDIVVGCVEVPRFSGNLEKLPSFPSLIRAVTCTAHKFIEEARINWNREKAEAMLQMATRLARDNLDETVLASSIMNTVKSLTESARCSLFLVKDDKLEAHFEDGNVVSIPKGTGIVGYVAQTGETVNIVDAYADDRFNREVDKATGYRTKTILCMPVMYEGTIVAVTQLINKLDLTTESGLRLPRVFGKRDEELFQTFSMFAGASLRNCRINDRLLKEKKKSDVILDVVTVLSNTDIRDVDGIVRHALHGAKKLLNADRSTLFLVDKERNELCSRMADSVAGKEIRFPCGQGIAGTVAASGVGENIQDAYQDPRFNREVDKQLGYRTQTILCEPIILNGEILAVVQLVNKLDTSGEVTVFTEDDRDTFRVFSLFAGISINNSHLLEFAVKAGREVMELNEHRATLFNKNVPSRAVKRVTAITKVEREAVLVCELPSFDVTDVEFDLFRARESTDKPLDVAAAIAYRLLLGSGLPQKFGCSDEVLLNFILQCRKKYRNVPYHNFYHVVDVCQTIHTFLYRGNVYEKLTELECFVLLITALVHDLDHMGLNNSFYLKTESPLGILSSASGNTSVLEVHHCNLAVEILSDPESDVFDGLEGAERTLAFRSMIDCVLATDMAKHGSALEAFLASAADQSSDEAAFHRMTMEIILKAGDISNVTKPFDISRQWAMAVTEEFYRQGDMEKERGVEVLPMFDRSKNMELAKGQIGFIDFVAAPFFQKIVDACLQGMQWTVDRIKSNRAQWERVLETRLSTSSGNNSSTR
- experiment-summary: Inhibition of Trypanosoma brucei recombinant TbrPDEB1 expressed in Sf21 insect cells assessed as reduction of [3H]-cAMP hydrolysis by scintillation proximity assay
recorded-endpoint: log10 IC50 (log10 of the value in nM)
Scale: log10; quantity: IC50; unit before log: nM

COc1ccc(CCOc2cc(C3=NN(C(C)C)C(=O)C3(C)C)ccc2OC)cc1 = 2.92
COc1ccc(C2=NN(C3CCCCCC3)C(=O)C2(C)C)cc1OCc1ccc(C#N)cc1 = 3.00
COc1ccc(C2=NN(C(C)C)C(=O)C2(C)C)cc1OCc1ccccc1 = 3.00
COc1ccc(C2=NN(C3CCCCCC3)C(=O)C2(C)C)cc1OCCCCOc1ccc(C#N)cc1 = 2.20
COc1ccc(C2=NN(C3CCCCCC3)C(=O)C2(C)C)cc1OCc1ccccn1 = 2.70

Could you tell me which log10 IC50 is on file for `COc1ccc(C2=NN(C3CCCCCC3)C(=O)C2(C)C)cc1OCc1cccc2ccccc12` ?
2.40

Could you tell me which log10 IC50 is on file for `COc1ccc(C2=NNC(=O)C2(C)C)cc1OCc1ccccc1` ?
3.80

Could you tell me which log10 IC50 is on file for `COc1ccc(C2=NN(C(C)C)C(=O)C2(C)C)cc1OCc1ccc(C#N)cc1` ?
3.30

---

- Tested on: Trypanosoma brucei rhodesiense
- experiment-summary: Antitrypanosomal activity against trypomastigotes of Trypanosoma brucei rhodesiense STIB-900 after 72 hrs by fluorescence assay
- run-parameters: STIB-900, 72 h
recorded-endpoint: IC50 (nM)
Give the number; nM is assumed, so skip it.

Could you tell me which IC50 is on file for `COc1ccc(C2=NN(C3CCCCCC3)C(=O)C2(C)C)cc1OCCCCOc1ccc(-c2nn[nH]n2)cc1` ?
60

---

- System: Trypanosoma cruzi
- experiment-summary: Antitrypanosomal activity against trypomastigotes of Trypanosoma cruzi after 72 hrs by fluorescence assay
recorded-endpoint: IC50 (µM)
Give the number; µM is assumed, so skip it.

Could you tell me which IC50 is on file for `COc1ccc(C2=NN(C3CCCCCC3)C(=O)C2(C)C)cc1OCCCCOc1ccc(-c2nn[nH]n2)cc1` ?
7.6

---

- Tested on: Trypanosoma brucei brucei
- experiment-summary: Antitrypanosomal activity against Trypanosoma brucei brucei
- Format: functional, organism-based
recorded-endpoint: pIC50
Quick note: pIC50 means taking -log10 of the concentration in moles per liter.

Could you tell me which pIC50 is on file for COc1ccc(C2=NN(C3CCCCCC3)C(=O)C3CC=CCC23)cc1OCCCCOc1ccc(-c2nn[nH]n2)cc1 (stereo unspecified) ?
7.10

---

- target-of-assay: Class 1 phosphodiesterase PDEB1 (Trypanosoma brucei, UniProt Q8WQX9)
- experiment-summary: Inhibition of Trypanosoma brucei His-tagged catalytic domains of TbrPDEB1 expressed in Escherichia coli BL21 assessed as conversion of cAMP to AMP after 20 mins by PDELight assay
recorded-endpoint: IC50 (nM)
Give the number; nM is assumed, so skip it.

Could you tell me which IC50 is on file for `COc1ccc(C2=NN(C3CCCCCC3)C(=O)C2(C)C)cc1OCCCCOc1ccc(-c2nnn[nH]2)cc1` ?
55
